# system-name: Fatty-acid amide hydrolase 1 (Homo sapiens)
# Sequence (whole entry): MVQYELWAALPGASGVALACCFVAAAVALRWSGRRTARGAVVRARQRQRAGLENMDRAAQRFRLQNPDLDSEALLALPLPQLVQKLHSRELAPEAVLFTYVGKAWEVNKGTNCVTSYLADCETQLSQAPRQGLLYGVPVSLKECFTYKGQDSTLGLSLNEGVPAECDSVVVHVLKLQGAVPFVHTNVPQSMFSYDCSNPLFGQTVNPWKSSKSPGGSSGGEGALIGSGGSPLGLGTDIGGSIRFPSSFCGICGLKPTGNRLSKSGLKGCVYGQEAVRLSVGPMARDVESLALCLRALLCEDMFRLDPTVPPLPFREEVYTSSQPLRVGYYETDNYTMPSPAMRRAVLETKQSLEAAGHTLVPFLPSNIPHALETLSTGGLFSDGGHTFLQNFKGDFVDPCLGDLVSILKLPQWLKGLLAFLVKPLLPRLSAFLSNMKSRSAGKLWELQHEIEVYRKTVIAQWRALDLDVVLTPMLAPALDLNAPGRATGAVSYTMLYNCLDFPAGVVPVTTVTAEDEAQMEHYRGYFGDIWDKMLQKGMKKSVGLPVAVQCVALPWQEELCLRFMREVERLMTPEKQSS
# method-summary: Ratio of Kinact to Ki for human FAAH by enzyme coupled assay
measurement-name: Ratio (M⁻¹ s⁻¹)
Just the number in M⁻¹ s⁻¹, nothing appended.

- O=C(Nc1cccnn1)N1CCC2(CCC(c3cccc(Oc4ccc(C(F)(F)F)cn4)c3)C2)CC1 (stereo not given): 307
- O=C(Nc1cccnc1)N1CCC2(CC1)CC(Cc1cccc(Oc3ccc(C(F)(F)F)cn3)c1)CO2 (stereo not given): 846
- Cc1noc(NC(=O)N2CCC3(CC2)CC(c2cccc(Oc4ccc(C(F)(F)F)cn4)c2)C3)c1C: 1760
- O=C(Nc1cccnn1)N1CCC2(CCC(c3cccc(Oc4ccc(C(F)(F)F)cn4)c3)O2)CC1 (stereo not given): 229

Could you now look at the following compound, please?
Q: Query (compound): O=C(Nc1cccnn1)N1CCC2(CC1)CC(CCc1cccc(Oc3ccc(C(F)(F)F)cn3)c1)C2 ; field requested: Ratio
A: 344

----------
# system-name: Fatty-acid amide hydrolase 1 (Homo sapiens) (UniProt O00519)
# method-summary: Ratio of Kinact to Ki for human FAAH by enzyme coupled assay
measurement-name: Ratio
Please answer in the form of a number followed by its unit of measurement.

Consider the following illustrative entries.
* O=C(Nc1cccnc1)N1CCC2(CC1)CC(c1cccc(Oc3ccc(C(F)(F)F)cn3)c1)C2 | 914 M⁻¹ s⁻¹
* O=C(Nc1cccnn1)N1CCC2(CC1)C[C@@H](c1cccc(Oc3ccc(C(F)(F)F)cn3)c1)CO2 | 1340 M⁻¹ s⁻¹
* O=C(Nc1cccnn1)N1CCC2(CC1)CC(Cc1cccc(Oc3ccc(C(F)(F)F)cn3)c1)C2 | 272 M⁻¹ s⁻¹
* O=C(Nc1cccnn1)N1CCC2(CC1)CC(c1cccc(Oc3ccc(C(F)(F)F)cn3)c1)CO2 (racemic) | 3130 M⁻¹ s⁻¹
* O=C(Nc1cccnn1)N1CCC2(CC1)CC(c1cccc(Oc3ccc(C(F)(F)F)cn3)c1)C2 | 1570 M⁻¹ s⁻¹
* O=C(Nc1cccnn1)N1CCC2(CC1)CN(c1cccc(Oc3ccc(C(F)(F)F)cn3)c1)C2 | 18.3 M⁻¹ s⁻¹
* Cc1noc(NC(=O)N2CCC3(CC2)CC(c2cccc(Oc4ccc(C(F)(F)F)cn4)c2)CO3)c1C (centres undefined) | 515 M⁻¹ s⁻¹
* O=C(Nc1cccnc1)N1CCC2(CC1)CC(c1cccc(Oc3ccc(C(F)(F)F)cn3)c1)CO2 (centres undefined) | 2080 M⁻¹ s⁻¹

Could you now look at the following compound, please?
Q: Query (compound): O=C(Nc1cccnn1)N1CCC2(CC1)C[C@H](c1cccc(Oc3ccc(C(F)(F)F)cn3)c1)CO2 ; field requested: Ratio
A: 3040 M⁻¹ s⁻¹

The values you see were collected from ChEMBL document CHEMBL1914405.
